Biological target: hSARM1 full length (Homo sapiens)
Construct: Human recombinant SARM1 full length proteins (wild-type and E642A mutant); made in house
Sequence (Q6SZW1 28-724): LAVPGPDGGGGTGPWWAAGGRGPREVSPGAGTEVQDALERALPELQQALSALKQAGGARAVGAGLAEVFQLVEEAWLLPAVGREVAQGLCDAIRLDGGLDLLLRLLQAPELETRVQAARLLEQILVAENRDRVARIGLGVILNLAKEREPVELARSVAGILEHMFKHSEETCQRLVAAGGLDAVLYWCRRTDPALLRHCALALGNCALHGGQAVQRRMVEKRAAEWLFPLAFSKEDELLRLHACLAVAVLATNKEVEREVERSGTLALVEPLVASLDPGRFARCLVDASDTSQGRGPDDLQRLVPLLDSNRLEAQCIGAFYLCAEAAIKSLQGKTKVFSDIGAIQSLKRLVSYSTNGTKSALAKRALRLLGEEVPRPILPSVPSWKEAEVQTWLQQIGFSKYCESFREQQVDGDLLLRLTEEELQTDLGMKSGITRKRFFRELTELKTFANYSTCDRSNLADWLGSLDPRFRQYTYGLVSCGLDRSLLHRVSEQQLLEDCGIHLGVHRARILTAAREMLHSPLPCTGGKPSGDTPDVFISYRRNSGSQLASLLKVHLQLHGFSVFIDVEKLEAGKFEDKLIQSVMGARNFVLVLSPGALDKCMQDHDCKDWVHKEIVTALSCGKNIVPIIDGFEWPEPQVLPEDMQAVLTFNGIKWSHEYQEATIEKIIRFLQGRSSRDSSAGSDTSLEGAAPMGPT
Experiment: Base exchange reactions at neutral pH (HPLC)
Type: biochemical
Settings: hSARM1 full length +VMN 0.05 mM; NAD […]; relative to NAD alone without trigger
Below, each entry is listed with its recorded rate (relative fold).
observable: rate (relative fold)

[
  {
    "compound": "O=C(O)c1cccnc1",
    "observable": "rate (relative fold)",
    "reading": 9.12
  },
  {
    "compound": "CC(=O)c1cccnc1",
    "observable": "rate (relative fold)",
    "reading": 10.49
  },
  {
    "compound": "O=C(NCc1cccnc1)Nc1ccc([N+](=O)[O-])cc1",
    "observable": "rate (relative fold)",
    "reading": 9.45
  },
  {
    "compound": "O=C(NCc1ccc[n+]([C@@H]2O[C@H](COP(=O)(O)O)[C@@H](O)[C@H]2O)c1)Nc1ccc([N+](=O)[O-])cc1 [VMN, vacor mononucleotide]",
    "observable": "rate (relative fold)",
    "reading": 9.63
  }
]

====

Target: hSARM1 full length (Homo sapiens)
Construct: Human recombinant SARM1 full length proteins (wild-type and E642A mutant); made in house
Sequence (Q6SZW1 28-724): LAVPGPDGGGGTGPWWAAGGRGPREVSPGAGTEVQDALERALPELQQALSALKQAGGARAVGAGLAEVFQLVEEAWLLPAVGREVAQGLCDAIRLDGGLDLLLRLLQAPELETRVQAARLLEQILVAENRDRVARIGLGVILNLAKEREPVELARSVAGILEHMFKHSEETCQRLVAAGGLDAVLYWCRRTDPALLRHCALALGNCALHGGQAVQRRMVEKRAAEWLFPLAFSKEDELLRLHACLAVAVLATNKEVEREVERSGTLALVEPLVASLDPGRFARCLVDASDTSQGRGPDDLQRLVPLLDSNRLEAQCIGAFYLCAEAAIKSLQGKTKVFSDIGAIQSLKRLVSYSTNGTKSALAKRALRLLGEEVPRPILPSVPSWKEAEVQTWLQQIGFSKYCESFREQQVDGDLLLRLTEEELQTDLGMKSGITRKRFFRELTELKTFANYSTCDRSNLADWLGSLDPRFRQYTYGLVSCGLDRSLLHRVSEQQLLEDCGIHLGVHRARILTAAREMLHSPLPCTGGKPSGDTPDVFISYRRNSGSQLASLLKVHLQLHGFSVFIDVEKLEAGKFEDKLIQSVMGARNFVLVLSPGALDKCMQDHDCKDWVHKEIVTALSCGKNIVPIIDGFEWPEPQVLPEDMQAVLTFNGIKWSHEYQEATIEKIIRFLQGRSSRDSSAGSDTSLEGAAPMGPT
Test: Base exchange reactions at neutral pH (HPLC)
Type: biochemical
Details: hSARM1 full length +NMN 0.2 mM; NAD […]; relative to NAD alone without trigger
Measured rate (relative fold) values are reported for all entries that follow.

[
  {
    "compound": "O=C(O)c1cccnc1",
    "rate (relative fold)": "9.23 ±1.28 fold"
  },
  {
    "compound": "O=C(NCc1cccnc1)Nc1ccc([N+](=O)[O-])cc1",
    "rate (relative fold)": "8.26 ±0.400 fold"
  },
  {
    "compound": "NC(=O)c1ccc[n+]([C@@H]2O[C@H](COP(=O)([O-])O)[C@@H](O)[C@H]2O)c1 [NMN, nicotinamide mononucleotide]",
    "rate (relative fold)": "8.61±1.23 fold"
  },
  {
    "compound": "CC(=O)c1cccnc1",
    "rate (relative fold)": "10.02 ±1.71 fold"
  }
]
